# Tested On: PI3K beta (Homo sapiens, UniProt P42338)
# Construct: for the full-length p110-b subunit are generated and fused by overlapping PCR; p85(iSH2) fusion partner (see partner chain) (N); His tag (C); Tn5 (Trichoplusia ni) or TiniPro insect cells
# Sequence (P42338 with tags, fused parts or gaps limits assumed): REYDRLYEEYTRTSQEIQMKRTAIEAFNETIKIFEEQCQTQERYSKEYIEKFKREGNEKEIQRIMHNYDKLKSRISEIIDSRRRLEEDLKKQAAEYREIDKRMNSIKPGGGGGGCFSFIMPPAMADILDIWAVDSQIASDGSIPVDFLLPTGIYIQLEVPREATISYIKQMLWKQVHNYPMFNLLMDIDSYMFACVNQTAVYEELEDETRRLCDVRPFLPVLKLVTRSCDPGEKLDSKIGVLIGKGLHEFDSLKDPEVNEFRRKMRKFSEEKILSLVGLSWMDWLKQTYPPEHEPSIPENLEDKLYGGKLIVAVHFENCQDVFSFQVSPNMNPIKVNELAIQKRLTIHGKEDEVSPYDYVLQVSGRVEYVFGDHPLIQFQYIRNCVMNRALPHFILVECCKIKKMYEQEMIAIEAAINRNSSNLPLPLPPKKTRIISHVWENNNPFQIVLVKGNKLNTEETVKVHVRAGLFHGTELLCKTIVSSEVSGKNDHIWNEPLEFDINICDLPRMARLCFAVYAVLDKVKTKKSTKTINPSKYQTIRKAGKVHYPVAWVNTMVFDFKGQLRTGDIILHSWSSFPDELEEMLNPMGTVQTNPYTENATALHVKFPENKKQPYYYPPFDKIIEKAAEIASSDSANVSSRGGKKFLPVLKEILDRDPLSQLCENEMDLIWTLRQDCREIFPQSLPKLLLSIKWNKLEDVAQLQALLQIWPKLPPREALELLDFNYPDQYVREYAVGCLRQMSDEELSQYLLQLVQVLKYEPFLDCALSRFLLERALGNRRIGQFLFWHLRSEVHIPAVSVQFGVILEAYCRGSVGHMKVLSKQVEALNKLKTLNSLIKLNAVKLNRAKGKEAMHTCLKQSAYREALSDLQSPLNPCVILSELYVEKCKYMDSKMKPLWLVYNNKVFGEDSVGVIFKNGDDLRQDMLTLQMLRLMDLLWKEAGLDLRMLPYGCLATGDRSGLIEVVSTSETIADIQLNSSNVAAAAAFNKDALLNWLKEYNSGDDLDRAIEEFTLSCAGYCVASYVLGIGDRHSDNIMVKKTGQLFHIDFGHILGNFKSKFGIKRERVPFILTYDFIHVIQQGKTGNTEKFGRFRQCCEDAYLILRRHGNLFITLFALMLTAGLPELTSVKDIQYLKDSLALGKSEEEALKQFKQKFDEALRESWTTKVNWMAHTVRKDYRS
# Procedure Summary: PI3K beta kinase assay (Kinase-Glo luminescence)
pIC50: −log10 of the molar value.
Property: pIC50

1) Cc1nn(C)c(C)c1-n1c(=O)n(C)c2cnc3ccc(-c4cnc(N)c(C(F)(F)F)c4)cc3c21 [Example 25.3] | 7.32
2) CNc1cc(-c2ccc3ncc4c(c3c2)n(-c2cn(C)nc2C)c(=O)n4C)cnc1C [Example 163] | 8.00
3) Cc1nn(C)cc1-n1c(=O)n(C)c2cnc3ccc(-c4cnc5ccn(C)c5c4)cc3c21 [Example 129] | 7.47
4) CCOc1cc(-c2ccc3ncc4c(c3c2)n(-c2c(C)nn(C)c2C)c(=O)n4C)ccc1OC [Example 28.2] | 6.88
5) COc1ccc(-c2ccc3ncc4c(c3c2)n(-c2ccnn2C)c(=O)n4C)cn1 [Example 2.2] | 6.56
6) CCNc1ncc(-c2ccc3ncc4c(c3c2)n(-c2cn(C)nc2C)c(=O)n4C)cc1C(F)(F)F [Example 145.2] | 7.30
7) Cc1nn(C)cc1-n1c(=O)n(C)c2cnc3ccc(-c4ccnc(OC(C)C)c4)cc3c21 [Example 92] | 6.61
8) Cc1nn(C(C)C)cc1-n1c(=O)n(C)c2cnc3ccc(-c4ccc(CO)nc4)cc3c21 [Example 16.3] | 6.39
9) CNc1ncc(-c2ccc3ncc4c(c3c2)n(-c2cn(C)nc2Cl)c(=O)n4C)cc1COC [Example 248.4] | 8.10
10) CCOc1ccc(-c2ccc3ncc4c(c3c2)n(-c2c(C)nn(C)c2C)c(=O)n4C)cc1OC [Example 29.2] | 6.78
11) Cc1nn(C)cc1-n1c(=O)n(C)c2cnc3ccc(-c4cnc(CO)c(OC(CF)CF)c4)cc3c21 [Example 192] | 8.22
12) COCc1ncc(-c2ccc3ncc4c(c3c2)n(-c2cn(C)nc2C)c(=O)n4C)cc1OC [Example 195.1] | 7.14
13) Cc1noc(C)c1-n1c(=O)n(C)c2cnc3ccc(-c4cnc(N)c(C(F)(F)F)c4)cc3c21 [Example 25.5] | 7.52
14) Cc1nn(C)cc1-n1c(=O)n(C)c2cnc3ccc(-c4cnc5c(c4)OCCN5C)cc3c21 [Example 209] | 6.56
15) Cc1nn(C)c(C)c1-n1c(=O)n(C)c2cnc3ccc(-c4cnc(N)c(Cl)c4)cc3c21 [Example 148.1] | 7.29
16) Cc1nn(C)cc1-n1c(=O)n(C)c2cnc3ccc(-c4ccc(NCCO)nc4)cc3c21 [Example 21.2] | 6.69
